src = PubChem BioAssay AID1159580

- PROCEDURE DETAILS: chemical genetic growth profiling, strain panel (AID 1159580);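 also: tested at 20 µM; growth read once vehicle control cultures reached saturation at 30 °C; lower values mean less growth of the strain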
- CONDITION CONTEXT: S. cerevisiae deletion strains, growth OD, locus YMR205C, strain PFK2 (second series)
Screen size: about 5,500 compounds; about 2,000 (36%) were called active. Not shown: some 18% with an inconclusive outcome. Rule as the data show it: active = normalized growth mostly below about 0.91 (no sharp cut-off); inconclusive = no clear call, values can overlap the other calls; inactive = mostly above about 0.92. This is one part of the list.
Possible outcomes: active, inactive

[
  {
    "COMPOUND": "O=C1Nc2ccccc2/C1=N/N=C\\c1cc(Br)cc(Br)c1O",
    "LABEL CLASS": "active"
  },
  {
    "COMPOUND": "CC(C)(C)c1csc(NNC(=O)c2ccc(Cl)cc2)n1",
    "LABEL CLASS": "inactive"
  },
  {
    "COMPOUND": "C/C(=N/Nc1nc(C(C)(C)C)cs1)c1ccc(Cl)c(Cl)c1",
    "LABEL CLASS": "inactive"
  },
  {
    "COMPOUND": "O=C1Nc2ccccc2/C1=N/N=C\\c1ccccc1Cl",
    "LABEL CLASS": "inactive"
  },
  {
    "COMPOUND": "Cc1csc2ncnc(N/N=C\\c3ccccc3Cl)c12",
    "LABEL CLASS": "inactive"
  },
  {
    "COMPOUND": "CN(C(=O)N(C)c1ccc(Cl)cc1C(=O)c1ccccc1Cl)c1ccc(Cl)cc1C(=O)c1ccccc1Cl",
    "LABEL CLASS": "active"
  },
  {
    "COMPOUND": "Cc1ccc2c(c1)CCCN2CC(=O)N(c1ccccc1)C1CCCCC1",
    "LABEL CLASS": "inactive"
  },
  {
    "COMPOUND": "Clc1ccccc1N/N=C\\Cc1nnnn1-c1ccccc1",
    "LABEL CLASS": "inactive"
  },
  {
    "COMPOUND": "CC(C)CSc1nnc(CSCc2nc(-c3ccc(Cl)cc3)cs2)n1C",
    "LABEL CLASS": "inactive"
  },
  {
    "COMPOUND": "Cc1nc(-c2ccc(C(F)(F)F)cn2)[nH]c(=O)c1Cl",
    "LABEL CLASS": "inactive"
  },
  {
    "COMPOUND": "CCCc1cnc(N2CCN(CC(=O)N(c3ccccc3)C3CCCCC3)CC2)nc1",
    "LABEL CLASS": "inactive"
  }
]
